B1: ZBED3 (parent)
chain: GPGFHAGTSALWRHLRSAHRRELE

- Variants of: B1
- test-details: protein stability index of a GFP-peptide fusion (GPS, HEK-293T) (PSI 1-6); higher = more stable;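 also: lentivirally expressed fusions sorted by FACS into six bins by GFP to DsRed ratio, PSI derived from sequencing read proportions per bin multiplied by bin number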
- measurement-parameters: c terminus: a fixed tail appended
Binary call on protein stability index: 1 (yes) from 2 upward, 0 (no) beneath that.

Problem: Decide: is the reported value of protein stability index for `P2T` equal to or greater than 2?
Solution: 1 (yes)

Problem: Decide: is the reported value of protein stability index for `T8L` equal to or greater than 2?
Solution: 1 (yes)

Problem: Decide: is the reported value of protein stability index for `S17P` equal to or greater than 2?
Solution: 0 (no)

Problem: Decide: is the reported value of protein stability index for `H5V` equal to or greater than 2?
Solution: 1 (yes)

Problem: Decide: is the reported value of protein stability index for `L15A` equal to or greater than 2?
Solution: 0 (no)

Problem: Decide: is the reported value of protein stability index for `R21E` equal to or greater than 2?
Solution: 1 (yes)

Problem: Decide: is the reported value of protein stability index for `L15H` equal to or greater than 2?
Solution: 1 (yes)

Problem: Decide: is the reported value of protein stability index for `R16G` equal to or greater than 2?
Solution: 0 (no)

Problem: Decide: is the reported value of protein stability index for `P2D` equal to or greater than 2?
Solution: 1 (yes)

Problem: Decide: is the reported value of protein stability index for `H19L` equal to or greater than 2?
Solution: 1 (yes)

Problem: Decide: is the reported value of protein stability index for `E22P` equal to or greater than 2?
Solution: 0 (no)

Problem: Decide: is the reported value of protein stability index for `L11C` equal to or greater than 2?
Solution: 1 (yes)

Problem: Decide: is the reported value of protein stability index for `S17V` equal to or greater than 2?
Solution: 0 (no)

Problem: Decide: is the reported value of protein stability index for `T8V` equal to or greater than 2?
Solution: 0 (no)

Problem: Decide: is the reported value of protein stability index for `S9A` equal to or greater than 2?
Solution: 1 (yes)

Problem: Decide: is the reported value of protein stability index for `A18M` equal to or greater than 2?
Solution: 0 (no)

Problem: Decide: is the reported value of protein stability index for `G3S` equal to or greater than 2?
Solution: 1 (yes)

Problem: Decide: is the reported value of protein stability index for `G7L` equal to or greater than 2?
Solution: 0 (no)

Problem: Decide: is the reported value of protein stability index for `S9G` equal to or greater than 2?
Solution: 0 (no)

Problem: Decide: is the reported value of protein stability index for `R21T` equal to or greater than 2?
Solution: 1 (yes)

Problem: Decide: is the reported value of protein stability index for `A18W` equal to or greater than 2?
Solution: 0 (no)
